Kindly supply the reported combination Emax values for the records listed here.
# System: ESO26 (Esophageal Adenocarcinoma)
# experiment_summary: combination Emax (second highest fraction inhibited in the dose matrix, 72 h); higher = more inhibition; extreme values may be limits of the assay

INPUT: Value lookup for combination Emax; key = COc1cc2c(cc1OCCCCCOc1cc3c(cc1OC)C(=O)N1C=C(C)C[C@H]1C=N3)N=C[C@@H]1CC(C)=CN1C2=O [SG3199] + O=C(c1cc(Cc2n[nH]c(=O)c3ccccc23)ccc1F)N1CCN(C(=O)C2CC2)CC1 [Olaparib] (first compound max 0.001 µM, 7x7, partner max 10 µM)
OUTPUT: 0.272

INPUT: Value lookup for combination Emax; key = CC1(C)CCC(CN2CCN(c3ccc(C(=O)NS(=O)(=O)c4ccc(NCC5CCOCC5)c([N+](=O)[O-])c4)c(Oc4cnc5[nH]ccc5c4)c3)CC2)=C(c2ccc(Cl)cc2)C1 [Venetoclax] + C[C@@H]1COCCN1C2=NC(=NC(=C2)C3(CC3)[S@](=N)(=O)C)C4=C5C=CNC5=NC=C4 [AZD6738] (first compound max 1 µM, 7x7, partner max 10 µM)
OUTPUT: 0.508

INPUT: Value lookup for combination Emax; key = NC1(C(=O)N[C@@H](CCO)c2ccc(Cl)cc2)CCN(c2ncnc3[nH]ccc23)CC1 [Capivasertib] + CCN(CCO)CCCOc1ccc2c(Nc3cc(CC(=O)Nc4cccc(F)c4)[nH]n3)ncnc2c1 [AZD2811] (first compound max 10 µM, 7x7, partner max 1 µM)
OUTPUT: 0.52

INPUT: Value lookup for combination Emax; key = C[C@@H](c1ccc2nccn2c1)n1nnc2ncc(-c3cnn(C)c3)nc21 [Savolitinib] + CC1(C)CCC(CN2CCN(c3ccc(C(=O)NS(=O)(=O)c4ccc(NCC5CCOCC5)c([N+](=O)[O-])c4)c(Oc4cnc5[nH]ccc5c4)c3)CC2)=C(c2ccc(Cl)cc2)C1 [Venetoclax] (first compound max 1 µM, 7x7, partner max 1 µM)
OUTPUT: 0.0719

INPUT: Value lookup for combination Emax; key = Cc1cc2ncnn2cc1Nc1ncc2c(n1)n(C1CCOCC1)c(=O)n2C [AZD7648] + CN(C)CCCOc1ccc(-c2ccc3ncc4c(c3c2)n(C2CCOCC2)c(=O)n4C)cn1 [AZD0156] (first compound max 10 µM, 7x7, partner max 1 µM)
OUTPUT: 0

INPUT: Value lookup for combination Emax; key = CN(CCO)CC[C@H](CSc1ccccc1)Nc1ccc(S(=O)(=O)NC(=O)c2ccc(N3CCC([C@@H](O)c4ccccc4-c4ccc(Cl)cc4)CC3)cc2)cc1S(=O)(=O)C(F)(F)F [AZD4320] + C[C@@H](Nc1cc(F)cc(F)c1)c1cc(C(=O)N(C)C)cc2c(=O)cc(N3CCOCC3)oc12 [AZD8186] (first compound max 1 µM, 7x7, partner max 3 µM)
OUTPUT: 0.325

====

# System: JIMT-1 (Breast Carcinoma)
# experiment_summary: Bliss excess, mean over the matrix (fraction); higher = more synergy
test_readout: Bliss excess
Enter the number alone.

INPUT: Value lookup for Bliss excess; key = Cc1c2c(nn1C)CSCc1cc(n(C)n1)CSc1cc(c3ccccc3c1)OCCCc1c(C(=O)O)n(C)c3c-2c(Cl)ccc13 [AZD5991] + Cn1cnc2c(F)c(Nc3ccc(Br)cc3Cl)c(C(=O)NOCCO)cc21 [Selumetinib] (first compound max 1 µM, 7x7, partner max 3 µM)
OUTPUT: -0.014

INPUT: Value lookup for Bliss excess; key = COc1cccc(OCCCN)c1-c1cc(Nc2cnc(C#N)cn2)n[nH]1 [Prexasertib] + C=CCn1c(=O)c2cnc(Nc3ccc(N4CCN(C)CC4)cc3)nc2n1-c1cccc(C(C)(C)O)n1 [AZD1775] (first compound max 1 µM, partner max 1 µM)
OUTPUT: 0.032

INPUT: Value lookup for Bliss excess; key = CC1(C)CCC(CN2CCN(c3ccc(C(=O)NS(=O)(=O)c4ccc(NCC5CCOCC5)c([N+](=O)[O-])c4)c(Oc4cnc5[nH]ccc5c4)c3)CC2)=C(c2ccc(Cl)cc2)C1 [Venetoclax] + CN(C)CCCOc1ccc(-c2ccc3ncc4c(c3c2)n(C2CCOCC2)c(=O)n4C)cn1 [AZD0156] (first compound max 1 µM, 7x7, partner max 1 µM)
OUTPUT: -0.0819

INPUT: Value lookup for Bliss excess; key = NC1(C(=O)N[C@@H](CCO)c2ccc(Cl)cc2)CCN(c2ncnc3[nH]ccc23)CC1 [Capivasertib] + COc1nnc2ccc(N3CCC(c4ccc(OCCN5CCN(C)C(=O)[C@H]5C)cc4)CC3)nn12 [AZD5153] (first compound max 10 µM, 7x7, partner max 1 µM)
OUTPUT: 0.0698

INPUT: Value lookup for Bliss excess; key = Cc1cc2ncnn2cc1Nc1ncc2c(n1)n(C1CCOCC1)c(=O)n2C [AZD7648] + CCN(CCO)CCCOc1ccc2c(Nc3cc(CC(=O)Nc4cccc(F)c4)[nH]n3)ncnc2c1 [AZD2811] (first compound max 10 µM, 7x7, partner max 1 µM)
OUTPUT: -0.0141

INPUT: Value lookup for Bliss excess; key = Cc1nc(Nc2ncc(C(=O)Nc3c(C)cccc3Cl)s2)cc(N2CCN(CCO)CC2)n1 [Dasatinib] + CC(=O)Nc1cccc(-n2c(=O)n(C3CC3)c(=O)c3c(Nc4ccc(I)cc4F)n(C)c(=O)c(C)c32)c1 [Trametinib] (first compound max 2 µM, 7x7, partner max 1 µM)
OUTPUT: 0.0276

INPUT: Value lookup for Bliss excess; key = CN(CCO)CC[C@H](CSc1ccccc1)Nc1ccc(S(=O)(=O)NC(=O)c2ccc(N3CCC([C@@H](O)c4ccccc4-c4ccc(Cl)cc4)CC3)cc2)cc1S(=O)(=O)C(F)(F)F [AZD4320] + CCN(CCO)CCCOc1ccc2c(Nc3cc(CC(=O)Nc4cccc(F)c4)[nH]n3)ncnc2c1 [AZD2811] (first compound max 1 µM, 7x7, partner max 1 µM)
OUTPUT: 0.0004

====

# Tested on: NCI-H841 (Small Cell Lung Carcinoma)
# experiment_summary: Bliss excess, mean over the matrix (fraction); higher = more synergy
test_readout: Bliss excess
Enter the number alone.

INPUT: Value lookup for Bliss excess; key = N#Cc1cnc(Nc2cc(NC[C@H]3CNCCO3)c(C(F)(F)F)cn2)cn1 [SRA737] + CCc1c2c(nc3ccc(O)cc13)-c1cc3c(c(=O)n1C2)COC(=O)[C@]3(O)CC [SN-38] (first compound max 10 µM, 7x7, partner max 0.3 µM)
OUTPUT: 0.044

INPUT: Value lookup for Bliss excess; key = Cc1c2c(nn1C)CSCc1cc(n(C)n1)CSc1cc(c3ccccc3c1)OCCCc1c(C(=O)O)n(C)c3c-2c(Cl)ccc13 [AZD5991] + Nc1ccn([C@@H]2O[C@H](CO)[C@@H](O)C2(F)F)c(=O)n1 [Gemcitabine] (first compound max 1 µM, 7x7, partner max 0.3 µM)
OUTPUT: 0.0135

====

Kindly supply the reported combination Emax values for the records listed here.
# System: 22RV1 (Prostate Carcinoma)
# experiment_summary: combination Emax (second highest fraction inhibited in the dose matrix, 72 h); higher = more inhibition; extreme values may be limits of the assay
Enter the number alone.

INPUT: Value lookup for combination Emax; key = CN(CCO)CC[C@H](CSc1ccccc1)Nc1ccc(S(=O)(=O)NC(=O)c2ccc(N3CCC([C@@H](O)c4ccccc4-c4ccc(Cl)cc4)CC3)cc2)cc1S(=O)(=O)C(F)(F)F [AZD4320] + CS(=O)(=O)CCNCc1ccc(-c2ccc3ncnc(Nc4ccc(OCc5cccc(F)c5)c(Cl)c4)c3c2)o1 [Lapatinib] (first compound max 1 µM, 7x7, partner max 10 µM)
OUTPUT: 0.335

INPUT: Value lookup for combination Emax; key = N#Cc1cnc(Nc2cc(NC[C@H]3CNCCO3)c(C(F)(F)F)cn2)cn1 [SRA737] + CCc1c2c(nc3ccc(O)cc13)-c1cc3c(c(=O)n1C2)COC(=O)[C@]3(O)CC [SN-38] (first compound max 10 µM, 7x7, partner max 0.3 µM)
OUTPUT: 0.685

INPUT: Value lookup for combination Emax; key = CCc1c2c(nc3ccc(O)cc13)-c1cc3c(c(=O)n1C2)COC(=O)[C@]3(O)CC [SN-38] + CN(C)CCCOc1ccc(-c2ccc3ncc4c(c3c2)n(C2CCOCC2)c(=O)n4C)cn1 [AZD0156] (first compound max 0.3 µM, 7x7, partner max 1 µM)
OUTPUT: 0.683

====

# Test system: KP-N-YN (Neuroblastoma)
# experiment_summary: Bliss excess, mean over the matrix (fraction); higher = more synergy
Kindly supply the reported Bliss excess values for the records listed here.
Enter the number alone.

INPUT: Value lookup for Bliss excess; key = CC(=O)c1c(C)c2cnc(Nc3ccc(N4CCNCC4)cn3)nc2n(C2CCCC2)c1=O [Palbociclib] + Cn1cnc2c(F)c(Nc3ccc(Br)cc3Cl)c(C(=O)NOCCO)cc21 [Selumetinib] (first compound max 10 µM, 7x7, partner max 10 µM)
OUTPUT: -0.0253

INPUT: Value lookup for Bliss excess; key = Cn1cnc2c(F)c(Nc3ccc(Br)cc3Cl)c(C(=O)NOCCO)cc21 [Selumetinib] + CCN(CCO)CCCOc1ccc2c(Nc3cc(CC(=O)Nc4cccc(F)c4)[nH]n3)ncnc2c1 [AZD2811] (first compound max 10 µM, 7x7, partner max 1 µM)
OUTPUT: 0.0253

INPUT: Value lookup for Bliss excess; key = Cc1cc2ncnn2cc1Nc1ncc2c(n1)n(C1CCOCC1)c(=O)n2C [AZD7648] + COc1cc([C@@H]2c3cc4c(cc3[C@@H](O[C@@H]3O[C@@H]5CO[C@@H](C)O[C@H]5[C@H](O)[C@H]3O)[C@H]3COC(=O)[C@H]23)OCO4)cc(OC)c1O [Etoposide] (first compound max 10 µM, 7x7, partner max 10 µM)
OUTPUT: 0.0446

INPUT: Value lookup for Bliss excess; key = CS(=O)(=O)CCNCc1ccc(-c2ccc3ncnc(Nc4ccc(OCc5cccc(F)c5)c(Cl)c4)c3c2)o1 [Lapatinib] + C[C@@H](Oc1cc(-c2cnn(C3CCNCC3)c2)cnc1N)c1c(Cl)ccc(F)c1Cl [Crizotinib] (first compound max 10 µM, 7x7, partner max 10 µM)
OUTPUT: -0.0084

INPUT: Value lookup for Bliss excess; key = NC1(C(=O)N[C@@H](CCO)c2ccc(Cl)cc2)CCN(c2ncnc3[nH]ccc23)CC1 [Capivasertib] + C[C@@H]1COCCN1C2=NC(=NC(=C2)C3(CC3)[S@](=N)(=O)C)C4=C5C=CNC5=NC=C4 [AZD6738] (first compound max 10 µM, 7x7, partner max 10 µM)
OUTPUT: -0.0395

INPUT: Value lookup for Bliss excess; key = COc1cccc(OCCCN)c1-c1cc(Nc2cnc(C#N)cn2)n[nH]1 [Prexasertib] + C[C@@H]1COCCN1C2=NC(=NC(=C2)C3(CC3)[S@](=N)(=O)C)C4=C5C=CNC5=NC=C4 [AZD6738] (first compound max 1 µM, 7x7, partner max 10 µM)
OUTPUT: -0.0048

INPUT: Value lookup for Bliss excess; key = CC1(C)CCC(CN2CCN(c3ccc(C(=O)NS(=O)(=O)c4ccc(NCC5CCOCC5)c([N+](=O)[O-])c4)c(Oc4cnc5[nH]ccc5c4)c3)CC2)=C(c2ccc(Cl)cc2)C1 [Venetoclax] + C=CCn1c(=O)c2cnc(Nc3ccc(N4CCN(C)CC4)cc3)nc2n1-c1cccc(C(C)(C)O)n1 [AZD1775] (first compound max 1 µM, partner max 1 µM)
OUTPUT: 0.0109

INPUT: Value lookup for Bliss excess; key = CCc1c2c(nc3ccc(O)cc13)-c1cc3c(c(=O)n1C2)COC(=O)[C@]3(O)CC [SN-38] + CN(C)CCCOc1ccc(-c2ccc3ncc4c(c3c2)n(C2CCOCC2)c(=O)n4C)cn1 [AZD0156] (first compound max 0.3 µM, 7x7, partner max 1 µM)
OUTPUT: 0.0238

INPUT: Value lookup for Bliss excess; key = CN(CCO)CC[C@H](CSc1ccccc1)Nc1ccc(S(=O)(=O)NC(=O)c2ccc(N3CCC([C@@H](O)c4ccccc4-c4ccc(Cl)cc4)CC3)cc2)cc1S(=O)(=O)C(F)(F)F [AZD4320] + C[C@@H]1COCCN1C2=NC(=NC(=C2)C3(CC3)[S@](=N)(=O)C)C4=C5C=CNC5=NC=C4 [AZD6738] (first compound max 1 µM, 7x7, partner max 10 µM)
OUTPUT: -0.019

INPUT: Value lookup for Bliss excess; key = CN(CCO)CC[C@H](CSc1ccccc1)Nc1ccc(S(=O)(=O)NC(=O)c2ccc(N3CCC([C@@H](O)c4ccccc4-c4ccc(Cl)cc4)CC3)cc2)cc1S(=O)(=O)C(F)(F)F [AZD4320] + C=CCn1c(=O)c2cnc(Nc3ccc(N4CCN(C)CC4)cc3)nc2n1-c1cccc(C(C)(C)O)n1 [AZD1775] (first compound max 1 µM, partner max 1 µM)
OUTPUT: 0.0631

INPUT: Value lookup for Bliss excess; key = COc1cc2c(cc1OCCCCCOc1cc3c(cc1OC)C(=O)N1C=C(C)C[C@H]1C=N3)N=C[C@@H]1CC(C)=CN1C2=O [SG3199] + O=C(c1cc(Cc2n[nH]c(=O)c3ccccc23)ccc1F)N1CCN(C(=O)C2CC2)CC1 [Olaparib] (first compound max 0.001 µM, 7x7, partner max 10 µM)
OUTPUT: -0.0387

INPUT: Value lookup for Bliss excess; key = COc1cccc2c1C(=O)c1c(O)c3c(c(O)c1C2=O)C[C@@](O)(C(=O)CO)C[C@@H]3O[C@H]1C[C@H](N)[C@H](O)[C@H](C)O1 [Doxorubicin] + Cc1cc2ncnn2cc1Nc1ncc2c(n1)n(C1CCOCC1)c(=O)n2C [AZD7648] (first compound max 1 µM, 7x7, partner max 10 µM)
OUTPUT: 0.0805

INPUT: Value lookup for Bliss excess; key = CC1(C)CCC(CN2CCN(c3ccc(C(=O)NS(=O)(=O)c4ccc(NCC5CCOCC5)c([N+](=O)[O-])c4)c(Oc4cnc5[nH]ccc5c4)c3)CC2)=C(c2ccc(Cl)cc2)C1 [Venetoclax] + COc1cc(Nc2ncc3c(n2)-c2ccc(Cl)cc2C(c2c(F)cccc2OC)=NC3)ccc1C(=O)O [Alisertib] (first compound max 1 µM, 7x7, partner max 10 µM)
OUTPUT: 0.0886
